# protocolText: qHTS Assay for Lipid Storage Modulators in Drosophila S3 Cells; also: potency is read from the fitted curve at half-maximal effect
# conditionSet: BODIPY lipid droplet fluorescence, 18-24 h, cells fed with added oleic acid; series mostly up to 46.1 µM
Hit rate of the full screen: of about 320,000 compounds, about 2,100 (0.66%) were called active. Another 53% or so got no clear call; they are omitted. Only a selection was taken, and actives are over-represented in it overall.
readoutName: Potency

molecule: Nc1cnc(Br)cc1Br
val: inactive
--
molecule: CCOC(=O)Cn1cnc2scc(-c3ccc(C)c(C)c3)c2c1=O
val: inactive
--
molecule: N/C(=N\OC(=O)C1CCCCC1)c1cccnc1
val: inactive
--
molecule: O=C(Oc1ccccc1)c1c(Cl)cccc1P(=O)(O)O
val: 3.66 µM (active)
--
molecule: COc1ccc(Br)cc1CN(C)C(=O)c1ccc2c(c1)NC(=O)C(C)S2 (stereo unspecified)
val: inactive
--
molecule: O=C(Oc1ccc(/C=N/O)cc1)c1ccccc1Cl
val: inactive

* * *

# protocolText: qHTS Assay for Lipid Storage Modulators in Drosophila S3 Cells; also: potency is read from the fitted curve at half-maximal effect
# conditionSet: BODIPY lipid droplet fluorescence, 18-24 h, cells fed with added oleic acid; series mostly up to 46.1 µM
Screen size: about 320,000 compounds; about 2,100 (0.66%) were called active. Inconclusive results (about 53%) are left out. The sample as a whole holds a higher share of actives than the screen did.

compound: COCC(=O)Nc1ccc(OCc2ccccc2)cc1
Potency: inactive
--
compound: CCOc1ccc(NS(=O)(=O)c2ccc(C(=O)N3CCCC(C)C3)cc2)cc1 (configuration not stated)
Potency: inactive
--
compound: O=C(CSc1ccc(Cl)cc1)Nc1cccc(-c2nc3ncccc3o2)c1
Potency: 1.3 µM (active)
--
compound: CN(C)c1ccc(/C=N/NC(=O)c2ccc(CN3C(=O)c4cccc5cccc3c45)cc2)cc1
Potency: inactive
--
compound: Cc1cccc(NC(=O)c2ccc3c(=O)n(CC4CCCO4)c(=S)[nH]c3c2)c1 (configuration not stated)
Potency: 2.91 µM (active)
--
compound: Cc1cc(Oc2nnnn2-c2ccccc2)ccc1Cl
Potency: inactive
--
compound: COc1cc(/C=N/NC(=O)c2ccc(CN3C(=O)c4cccc5cccc3c45)cc2)cc(OC)c1O
Potency: 3.26 µM (active)
--
compound: CCN(c1ccccc1)S(=O)(=O)c1c[nH]c2ccc([N+](=O)[O-])cc12
Potency: 5.8 µM (active)
--
compound: CC(C)CC(=O)Nc1cccc(-c2nc3ncccc3o2)c1
Potency: inactive
--
compound: COc1ccc(NC(=O)CN(C)C(=O)/C=C/c2ccc(OCc3ccccc3)cc2)cc1
Potency: 0.731 µM (active)
--
compound: Cc1ccnc2c1ccc1c(C)ccnc12
Potency: inactive
--
compound: O=C(COC(=O)CCOc1ccccc1)NCCC1=CCCCC1
Potency: inactive
--
compound: COc1ccc(C(=O)/C=C/Nc2ccc(S(=O)(=O)Nc3nc(C)cc(C)n3)cc2)c(OC)c1
Potency: inactive
--
compound: CCc1ccc(S(=O)(=O)Nc2ccncc2)cc1
Potency: inactive
--
compound: COc1cc(/C=N/NC(=O)c2ccc(CN3c4cccc5cccc(c45)S3(=O)=O)cc2)cc(OC)c1O
Potency: inactive
--
compound: CCOC(=O)/C(=N/Nc1ccc(OC)cc1)N1CCCc2ccccc21
Potency: inactive
--
compound: CCCNC(=O)Nc1nc(CC(=O)OCC)cs1
Potency: inactive
--
compound: CCCCC(=O)Nc1cccc(-c2nc3ncccc3o2)c1
Potency: inactive
--
compound: CCOc1ccc(NS(=O)(=O)c2ccc(C(=O)N3CC(C)OC(C)C3)cc2)cc1 (configuration not stated)
Potency: 25.9 µM (active)
--
compound: COc1ccc(C(=O)/C=C/Nc2ccc(S(=O)(=O)Nc3cc(OC)nc(OC)n3)cc2)c(OC)c1
Potency: 29.1 µM (active)
--
compound: CC(C)CNC(=O)CN1C(=O)NC2(CCCc3ccccc32)C1=O (configuration not stated)
Potency: inactive
--
compound: COc1ccc(NC(=O)CN(C)C(=O)c2ccc(COc3ccccc3)cc2)cc1
Potency: inactive
